- System: SKOV3
- Method notes: Primary qHTS to identify gynecologic anti-cancer compounds using libraries of approved drugs and bioactive compounds (AID 1345084); also: % is scaled to controls: 0 for no effect and ±100 for the full control effect; nearly all actives have a fitted effect of over 55% in size
- Assay context: Gynecologic cancer cell panel viability, ATPlite luminescence, 48 h; series mostly up to 57.5 µM
Records with an inconclusive call do not appear. The source made the active and inactive calls. Calls follow the shape of the dose curve; as a rule, active = well fitted cell-killing curve with a large enough effect; inconclusive = small, poorly fitted or top-dose-only effect, or effect the other way; inactive = flat fitted curve, though single readings scatter.
Endpoint name: activity change, negative = cytotoxicity

Worked examples, 5 compounds total:
# query: activity change, negative = cytotoxicity | item C=C1CCC2(C(=O)OC3OC(CO)C(O)C(O)C3O)CCC3(C)C(=CCC4C5(C)CCC(OC6OC(CO)C(OC7OC(C)C(O)C(O)C7O)C(OC7OCC(O)C(O)C7O)C6O)C(C)(C)C5CCC43C)C2C1 (stereo unspecified) | system: SKOV3
24.5% [at 11.6 µM] (inactive)

SKOV3 / activity change, negative = cytotoxicity / COC(=O)C1=COC(OC2OC(CO)C(O)C(O)C2O)C2C(C)C(OC(=O)/C=C/c3ccc(O)cc3)C(O)C12 (stereo unspecified) : value?
inactive

API: value(readout=activity change, negative = cytotoxicity, system=SKOV3) for record COc1cc(/C=C/c2ccccc2)c(C(=O)O)c(O)c1CC=C(C)C
inactive

Recall the recorded activity change, negative = cytotoxicity for Cc1occc(=O)c1O[C@@H]1O[C@H](CO)[C@@H](O)[C@H](O)[C@H]1O with SKOV3 and state it.
inactive

Form field: activity change, negative = cytotoxicity recorded for C=C(C(=O)O)[C@@H]1CC[C@H](C)[C@@H]2CC(=O)C(C)=C2C1 with SKOV3 (enter value)
inactive

---
Kindly state the measured activity change, negative = cytotoxicity obtained for NC(N)=NCCC[C@H](NC(=O)c1sccc1NS(=O)(=O)c1cccc2nsnc12)C(=O)O with SKOV3.
inactive

Form: Entry = O=C(O)CC1CCC(c2ccc(-c3ccc(Nc4ccc(C(F)(F)F)nc4)cn3)cc2)CC1 (stereo unspecified) | System = SKOV3 | activity change, negative = cytotoxicity = ____
inactive

For the record CC1(C)CC[C@]2(C(=O)O[C@@H]3O[C@H](CO)[C@@H](O)[C@H](O)[C@H]3O)CC[C@]3(C)C(=CCC4[C@@]5(C)C[C@H](O)[C@H](O[C@@H]6O[C@H](C(=O)O)[C@@H](O)[C@H](O)[C@H]6O)[C@@](C)(CO)C5CC[C@]43C)C2C1 (stereo partly specified) , what value of activity change, negative = cytotoxicity is listed for SKOV3?
14.6% [at 6.55 µM] (inactive)

Form field - read-out: activity change, negative = cytotoxicity; system: SKOV3; submitted item: CCCC1=CC2=C(CO1)C(=O)C(C)(O)C(OC(=O)c1c(C)cc(OC)cc1O)C2 (stereo unspecified)
inactive

Notebook entry, SKOV3 assay: activity change, negative = cytotoxicity of Cc1ccc(-c2c(-c3nn(C)c4ncnc(N5CC[C@H](N6CCCCC6)C5)c34)cnn2C)cc1 = ?
inactive

Under SKOV3: activity change, negative = cytotoxicity value of CC(C)=C1CC2C(CCC2(C)O)C(C)(O)CC1=O (stereo unspecified) ?
inactive
